System: MS2 coat protein
experiment: apparent KD of MS2 coat protein; designed switch direction (-1 OFF switch, 1 ON switch): 1; higher = weaker reporter binding
assayContext: input ligand: microRNA oligo, concentration not stated
reportedEndpoint: apparent KD of MS2 coat protein (nM)
# value in nM; strip the unit string

*Q* Give the measured apparent KD of MS2 coat protein of GGUGCGAAAUAAGCCUACAUGAGGAUCACCCAUGUAUGUAGGCAGGAUAUCGUAUGCAAAGCAUACGAGAAGGGCUGUCGCACC [Mat - Same State NG 3 - JL Mod - D48] (Eterna round: R96, puzzle: Same State NG 3) .
*A* 61

---
*Q* So what's the measured apparent KD of MS2 coat protein for this one? UAAGGACAUGAGGAUCACCCAUGUGCUUCAUAUGGAGAAACUCAGGAUAUGCUGAGGAUCACCCAGCAGAAGGGAGAUCCGAGG (Eterna round: R96, puzzle: Same State NG 3)
*A* 279

*Q* Look up apparent KD of MS2 coat protein: AGUGGUGGUGCAGGAUAUGCCUCAAAAGCAUGGGUAGAAGGGCAAUACAAAGAAACUCUGACAUGAGGAUCACCCAUGUAGCAA [Eternabot solution 43] (Eterna round: R96, puzzle: Same State NG 1)
*A* 241

*Q* Requested field: apparent KD of MS2 coat protein. Item: GUGGUCUGACAUGAGGAUCACCCAUGUGGAAUAAAUAAGGGUUAGGAUAUCUUGAGGAUCACCCAAGAGAAGGGAUGGUUGGUG (Eterna round: R96, puzzle: Same State NG 3)
*A* 90.7

Data origin, for the record: the supplement of paper PMC9170038
